Values were extracted from PubChem BioAssay AID1159580.

- Test details: chemical genetic growth profiling, strain panel (AID 1159580);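 further: tested at 20 µM; growth read once vehicle control cultures reached saturation at 30 °C; 1 = growth at the plate median or of vehicle wells; lower values mean less growth of the strain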
- Run conditions: S. cerevisiae deletion strains, growth OD, locus YML016C, strain PPZ1
Among all 5,500 compounds or so, about 2,000 (36%) were called active. Inconclusive results (about 18%) are left out. No stated cut-off is given here; in the data, active means normalized growth mostly below about 0.91 (no sharp cut-off); inconclusive means no clear call, values can overlap the other calls; inactive means mostly above about 0.92. Some of the results follow.
Would you mind answering with one of these outcomes? TRUE for active, FALSE for inactive

Compound	Answer label
COc1ccc([C@@H]2CC(=O)c3c(O)cc(O[C@@H]4O[C@H](CO[C@H]5O[C@@H](C)[C@H](O)[C@@H](O)[C@H]5O)[C@@H](O)[C@H](O)[C@H]4O)cc3O2)cc1O	FALSE
Cc1ccc2c(c1)C1(C)CCCC(C)(C(=O)O)C1CC2 (stereo unspecified)	FALSE

// return assay outcome for "O=C(O)c1ccc(S(=O)(=O)N(Cl)Cl)cc1" FALSE

// return assay outcome for "COC(=O)c1c(C)c2c(c(C)c1OC)OC(=O)c1c(C)c(Cl)c(OC)c(Cl)c1O2" FALSE

// return assay outcome for "CC(C)=CCc1c2c(c3occ(-c4ccc(O)cc4)c(=O)c3c1O)C=CC(C)(C)O2" TRUE

// return assay outcome for CC(N=C(NC#N)Nc1ccncc1)C(C)(C)C (stereo unspecified) FALSE

// return assay outcome for "OC[C@H]1O[C@@H](O[C@H]2[C@H](O)[C@@H](O)[C@@H](O)O[C@@H]2CO)[C@H](O)[C@@H](O)[C@@H]1O" FALSE

// return assay outcome for "O=C(O)c1cccnc1" FALSE

// return assay outcome for "COC(=O)c1c(OC)cc2c(c1C)Oc1c(Cl)c(O)c(Cl)c(C)c1C(=O)O2" FALSE

// return assay outcome for CN(C)C1C(=O)C(C(N)=O)=C(O)C2(O)C(=O)C3=C(O)c4c(O)ccc(Cl)c4C(C)(O)C3CC12 (stereo unspecified) FALSE

// return assay outcome for "Nc1ccc(S(=O)(=O)NC(=O)c2ccccc2)cc1" FALSE

// return assay outcome for "Nc1ccc(C(=O)O)cc1" FALSE

// return assay outcome for CC(=O)O[C@@H]1CC2C(C)(C)[C@H](O)C=C[C@]2(C)C2CC[C@]3(C)C(=CC(=O)O[C@H]3c3ccoc3)[C@@]21C (stereo partly specified) FALSE

// return assay outcome for CC(CCC(=O)O)[C@H]1CCC2C3CC[C@@H]4CC(=O)CC[C@]4(C)C3C=C[C@@]21C (stereo partly specified) FALSE

// return assay outcome for COc1ccccc1OCC(O)CO (stereo unspecified) FALSE

// return assay outcome for CC(=O)O[C@H]1CC[C@@]2(C)C(C[C@@H](OC(C)=O)[C@@]3(C)C4=CC(=O)O[C@@H](c5ccoc5)[C@]4(C)CCC23)C1(C)C (stereo partly specified) FALSE

* * *

- Test details: chemical genetic growth profiling, strain panel (AID 1159580)
- Run conditions: S. cerevisiae deletion strains, growth OD, locus YOL147C, strain pex11, active compounds read low
In all, about 5,500 compounds went through this assay and about 2,000 (36%) were called active. Inconclusive results (about 18%) are left out. Some of the results follow.
# normalized growth per record follows

Recorded normalized growth (compound "COC(=O)c1c(C)c2c(c(C)c1OC)OC(=O)c1c(C)c(Cl)c(OC)c(Cl)c1O2" ): 1.01 (inactive)

Recorded normalized growth (compound "Cc1cc(=O)[nH]c(=S)[nH]1" ): 1 (inactive)

Recorded normalized growth (compound "COc1c(C)c2c(c(C)c1Cl)Oc1c(Cl)c(OC)c(Cl)c(C)c1C(=O)O2" ): 1.01 (inactive)

Recorded normalized growth (compound O=P1(N(CCCl)CCCl)NCCCO1 (stereo unspecified) ): 1.02 (inactive)

Recorded normalized growth (compound C=C(C)C1(O)OC(=O)C=C1OC (stereo unspecified) ): 0.991 (inactive)

Recorded normalized growth (compound "COC(=O)c1c(OC)cc2c(c1C)Oc1c(Cl)c(OC(C)=O)c(Cl)c(C)c1C(=O)O2" ): 0.999 (inactive)

* * *

- Test details: chemical genetic growth profiling, strain panel (AID 1159580)
- Run conditions: S. cerevisiae deletion strains, growth OD, locus YDR502C, strain sam2, active compounds read low
In all, about 5,500 compounds went through this assay and about 2,000 (36%) were called active. Not shown: some 18% with an inconclusive outcome. The list shows a part of the results.
Observed property: normalized growth
Lab note: record the figure alone, no unit after it.

> print(dat)
                                   compound  measured.number
1  CC(=O)Oc1ccc(C(c2ccc(OC(C)=O)cc2)c2ccccn2)cc1            0.999
2  OC[C@H]1O[C@@H](O[C@H]2[C@H](O)[C@@H](O)[C@@H](O)O[C@@H]2CO)[C@H](O)[C@@H](O)[C@@H]1O            0.992
3  CC(=O)Oc1ccc(/C=C/c2cc(OC(C)=O)cc(OC(C)=O)c2)cc1            0.999
4  C=C(C)C1(O)OC(=O)C=C1OC (configuration not stated)            0.996
5                        CC(=O)Oc1ccc(O)cc1             1.02

Recorded normalized growth (compound CCN(CC)CCOC(=O)C(c1ccccc1)C1CCCCC1 (configuration not stated) ): 0.998

Recorded normalized growth (compound "CN(C)[C@@H]1C(=O)C(C(N)=O)=C(O)[C@@]2(O)C(=O)C3=C(O)c4c(O)ccc(Cl)c4[C@@H](O)[C@H]3C[C@@H]12" ): 0.981

* * *

- Test details: chemical genetic growth profiling, strain panel (AID 1159580);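 further: tested at 20 µM; growth read once vehicle control cultures reached saturation at 30 °C; 1 = growth at the plate median or of vehicle wells; lower values mean less growth of the strain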
- Run conditions: S. cerevisiae deletion strains, growth OD, locus YDR195W, strain ref2
Hit rate of the full screen: of about 5,500 compounds, about 2,000 (36%) were called active. About 18% were inconclusive and are not listed. The list shows a part of the results.
Mark t only for normalized growth values smaller than 1; exact matches and larger values are f.

Solved entries:
Compound	Answer label
CC(=O)O[C@H]1CCC2(C)C3=C(CCC2C1(C)C)[C@@]1(C)CC[C@@H](C(C)CCC=C(C)C)[C@]1(C)CC3 (stereo not given in full)	f
CN(C)CCCN1c2ccccc2Sc2ccccc21	f
COC1CC2CCC(C)C(O)(O2)C(=O)C(=O)N2CCCCC2C(=O)OC(C(C)CC2CCC(O)C(OC)C2)CC(=O)C(C)/C=C(\C)C(O)C(OC)C(=O)C(C)CC(C)/C=C/C=C/C=C/1C (stereo not given)	t
COc1ccc2cc(CCC(C)=O)ccc2c1	f
Nc1ccc(S(=O)(=O)NC(=O)c2ccccc2)cc1	t
N=C(N)N	t
OC[C@H]1O[C@@H](O[C@H]2[C@H](O)[C@@H](O)[C@@H](O)O[C@@H]2CO)[C@H](O)[C@@H](O)[C@@H]1O	t
CC(C)CCCC(C)C1CCC2C3=CC[C@H]4C[C@@H](O)CC[C@]4(C)C3CC[C@@]21C (stereo not given in full)	f
Cc1scc2c1N(C(=O)CN1CCN(C)CC1)c1ccccc1NC2=O	t
Oc1c(Cl)cc(Cl)cc1Sc1cc(Cl)cc(Cl)c1O	t

# strict comparison: is reported normalized growth < 1? input = CN1CCN(C(=O)OC2c3nccnc3C(=O)N2c2ccc(Cl)cn2)CC1 (stereo not given) t

# strict comparison: is reported normalized growth < 1? input = "CNCCCC12CCC(c3ccccc31)c1ccccc12" f

# strict comparison: is reported normalized growth < 1? input = COc1ccc(C2Sc3ccccc3N(CCN(C)C)C(=O)C2OC(C)=O)cc1 (stereo not given) t

# strict comparison: is reported normalized growth < 1? input = "CN(C)CCCN1c2ccccc2CCc2ccc(Cl)cc21" f

* * *

- Test details: chemical genetic growth profiling, strain panel (AID 1159580);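 further: tested at 20 µM; growth read once vehicle control cultures reached saturation at 30 °C; 1 = growth at the plate median or of vehicle wells; lower values mean less growth of the strain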
- Run conditions: S. cerevisiae deletion strains, growth OD, locus YKR026C, strain gcn3, active compounds read low
Screen size: about 5,500 compounds; about 2,000 (36%) were called active. Not shown: some 18% with an inconclusive outcome. This is one part of the list.
Observed property: normalized growth
Lab note: record the figure alone, no unit after it.

Recorded normalized growth (compound C[C@H](CCC(=O)O)[C@H]1CCC2C3C(=O)CC4CC(=O)CC[C@]4(C)C3CC(=O)[C@@]21C (stereo partly drawn) ): 0.972

* * *

- Test details: chemical genetic growth profiling, strain panel (AID 1159580);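 further: tested at 20 µM; growth read once vehicle control cultures reached saturation at 30 °C; 1 = growth at the plate median or of vehicle wells; lower values mean less growth of the strain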
- Run conditions: S. cerevisiae deletion strains, growth OD, locus YNL020C, strain ARK1, active compounds read low
Among all 5,500 compounds or so, about 2,000 (36%) were called active. Another 18% or so got no clear call; they are omitted. The list shows a part of the results.
Observed property: normalized growth
Lab note: record the figure alone, no unit after it.

Worked cases, answers included:
> print(dat)
                                        mol  measured.number
1  CC(C)(C)c1cc(C(=O)Nc2ccc3c(c2)OCO3)n(Cc2ccc(F)cc2)n1            0.889
2  O=S(=O)(Nc1ccccc1Oc1ccccc1)c1ccc(-c2ccno2)s1            0.924

Recorded normalized growth (molecule "O=C(Nc1ccc(F)cc1F)c1cc(Cl)c(-n2cccc2)c(Cl)c1" ): 0.911
